Where do these numbers come from? They come from patent US12410220B2.

system: HFF-1 human fibroblast cell line; test: Collagen-1 ELISA in HFF-1 dermal fibroblasts; type: cell-based; conditions: peptide 2 uM, 72 hour incubation
Marks after values point to notes of the source that are not given here. Ends that are not written are not given here.
Recorded COL1 immunoreactivity in supernatants, control (buffer) set to 100 values for a group of substances are listed next.
QUANTITY_KIND: COL1 immunoreactivity in supernatants, control (buffer) set to 100

SUBSTANCE: (cin)-KKGFYKKKQCRPSKGRKRGFCW ({cinnamic acid}-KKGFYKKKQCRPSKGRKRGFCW; cysteine pairing not given here) [imm3cin, imm3 N-terminally conjugated with cinnamic acid]
MEASURED: 106

SUBSTANCE: FNSYELGSLKKGFYKKKQCRPSKGRKRGFCW [imm3K8]
MEASURED: 98

SUBSTANCE: AFNSYELGSKGFYKKKQCRPSKGRKRGFCW [imm3K9]
MEASURED: 155**

SUBSTANCE: AFNSYELGSKKGFYKKKQCRPSKGRKRGFCW [imm3K9.1]
MEASURED: 156**

SUBSTANCE: (rhn)-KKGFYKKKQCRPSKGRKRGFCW (rhein-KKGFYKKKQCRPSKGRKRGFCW; cysteine pairing not given here) [imm3rhn, imm3 N-terminally conjugated with rhein]
MEASURED: 68**

SUBSTANCE: AFNSYELGSKGFYKKKQCRPSKGRKRGFCWAVDKY [imm3K9c]
MEASURED: 158**

SUBSTANCE: (bex)-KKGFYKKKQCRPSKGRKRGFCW (not fully specified (N-terminus); printed as (bex)-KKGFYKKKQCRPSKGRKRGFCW; cysteine pairing not given here) [imm3bex]
MEASURED: 102

SUBSTANCE: (isf)-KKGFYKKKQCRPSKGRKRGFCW ({isoferulic acid}-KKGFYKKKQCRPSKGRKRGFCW; cysteine pairing not given here) [imm3isf, imm3 N-terminally conjugated with isoferulic acid]
MEASURED: 131*
